tested-system: SARS-CoV-2 receptor binding domain (RBD) (SARS-CoV-2, GenBank MN985325.1 …, UniProt P0DTC2)
protocol-text: BLI
experimental-setup: both partners purified
pKd: −log10 of the molar value.
Examples of binders with documented pKd follow.
measurement-kind: pKd

binder="C841 (antibody, V domains shown, source: recombinant, purified) VH: EVQLVESGGGLVQPGGSLRLSCAASGFTFSIFSMNWVRQAPGKGLEWISYISSSSGSRHYADSVKGRFTISRDNAKNSLYLQMNNLRDEDTAMYYCAREAHDGALTGYGDYLNWFDPWGQGVLVTVSS VL: SYELTQPPSVSVAPGKTARIPCGGDSVGSKSVHWYQQKSGQAPVLVIHSDSDRPSGIPERFSGSNSGNTATLTITGVAAGDEADYYCHVWDTIGDRFYWVFGGGTKLTVL" readout_value=8.22
binder="C936 (antibody, V domains shown, source: recombinant, purified) VH: EVQLVESGGGLIQPGGSLRLSCAASGFTVSSNYMSWVRQAPGKGLEWVSVIYSGGSTFYADSVKGRFTISRDNSKNTLYLQMNSLRAEDTAVYYCARDLGTGLFDYWGQGTLVTVSS VL: DIQLTQSPSFLSASVGDRVTITCRASQGISSYLAWYQQKPGKAPKLLIYAASTLQSGVPSRFSGSGSGTEFTLTISSLQPEDFATYYCQQLDSYPPGTFGPGTKVDIK" readout_value=6.80
binder="C1003 (antibody, V domains shown, source: recombinant, purified) VH: QVQLVESGGGVVQPGRSLRLSCAASGFAFSSYGMNWVRQAPGKGLEWVTTVSSDGNVNYYIDSVKGRFTISRDNSKNTLYLQMNSLRGDDTAVYYCAKGPRFGWSYRGGSGFDIWGQGTMVTVSS VL: DIQMTQSPSSLSASVGDRVTITCQASQDISNYLNWYQQKPGKAPKLLIYDASNLETGVPSRFSGSGSGTDFTFTITSLQPEDIATYYCQQYDNLPITFGQGTRLEIK" readout_value=7.94
